tested on: MS2 coat protein; assay: apparent KD of MS2 coat protein; designed switch direction (-1 OFF switch, 1 ON switch): 1; higher = weaker reporter binding; conditions: input ligand: microRNA oligo, concentration not stated
apparent KD of MS2 coat protein: recorded values
Your answer should be a plain number; it is taken to be in nM.

sequence content	apparent KD of MS2 coat protein, nM
GGACGUCAUCUCAAUGAUUAAACAUGAGGAUCACCCAUGUCACAGGAUAUGGAUCCUAAUUGGAUCCAGAAGGGUGUGACGUCC [Fiskers NG3ss - 44] (Eterna round: R96, puzzle: Same State NG 3)	98.2

Now turn to the next sequence.
Answer with the recorded apparent KD of MS2 coat protein of UCGGGCGUACUUGCUGACAUGAGGAUCACCCAUGUCCUUGCGCAGGAUAUGGUUCCGUUUCGGUUCCAGAAGGUCCUGGCUGCU [salish99_SSNG3_r04_319] (Eterna round: R96, puzzle: Same State NG 3) only. 19.5

###

system: MS2 coat protein; experiment: apparent KD of MS2 coat protein; higher = weaker reporter binding; conditions: Eterna round: R101; input ligand: FMN 200 uM
Classify by measured apparent KD of MS2 coat protein: Satisfied if it is equal to or exceeds 60 nM, Not satisfied if it is smaller.

Is the recorded value of apparent KD of MS2 coat protein equal to or greater than 60 nM for this sequence? UGCUAACUGUAGAAGGGUGACAUGAGGAUCACCCAUGUGCACGCGCGCUUUACGGCGCGCGUGCCACAGGAUAUACAGUUGAGU [Erora] (puzzle (switch architecture): Inverted Same State NG 2) Not satisfied

Does AAAUAAAUUGAAGGAUAUGACCCUCGAGGUGACUAAAAGUCACCUCGAGGGUCAGAAGGUCGAGGAUCACCCGAUCUAAAUAAA [#SharedSequence SLExNG1: 1-1] (puzzle (switch architecture): Small Loop Exclusion NG 1) have a reported apparent KD of MS2 coat protein of at least 60 nM? Not satisfied

###

system: MS2 coat protein; assay: apparent KD of MS2 coat protein; designed switch direction (-1 OFF switch, 1 ON switch): -1; higher = weaker reporter binding; conditions: input ligand: none
Use apparent KD of MS2 coat protein to assign classes; range list: Low (below 30 nM), Mid (30 nM to below 100 nM), High (100 nM or more)

Worked cases, answers included:
sequence content	class label
AAAGGGAAUGAGGAUAUCGUAUUGGAUAUAGUGCGAGAAGGCAUUACAUGAGGAUCACCCAUGUUUUGUUGGGA [JR_Ex6_Sub006] (Eterna round: R97, puzzle: Exclusion 6)	Mid
ACCAAGCUAUGCACGUCUGACAUGAGGAUCACCCAUGUAGCCGGUCUCGGAAGGAGACAGGCUCCAGGUGGCUCAGA [Eternabot (Original) Solution 37] (Eterna round: R97, puzzle: Sensor, turn-off variant 1)	High
AUAAAACAUGAGGAUCACCCAUGUCAGGAUAUACGACUCCAACCAAACUGCUUGGACCGUAGAAGGGACAAGGG [Exclusion 1 (MOD2 Esqu)] (Eterna round: R97, puzzle: Exclusion 1)	High
CUGUUUUCCGCAGGAUAUGCUCCUCCAUUAUUUGCAGAAGGGCGUUGAACAUGAGGAUCACCCAUGUAUGUAAUUGAUUAUUGC [JR_ExcNG1_Sub070] (Eterna round: R96, puzzle: Exclusion NG 1)	Mid
UUUAAUGGAAUUAAGAUCACAUGAGGAUCACCCAUGUAUAUAUAGGAUAUCAGCUCGAUUAGAGCUGAGAAGGAUAUAUACAUA [ExNG3/6-B1] (Eterna round: R96, puzzle: Exclusion NG 3)	Mid
ACCGCUUCUGCAGGAUAUGGACAACAUGAGGAUCACCCAUGUGAUCUAUAAAGUAGUGGUGGCGUCCAGAAGGGCAGAUUAAGG [Maamabi] (Eterna round: R96, puzzle: Exclusion NG 2)	Mid

Any idea which band GAAGAGUGAGGAUAUACAUGAGGAUCACCCAUGUUAACCUUCUACAGCAUGGACUCGAGUAGAAGGCGCCAAGA [Eternabot (Original) Solution 21] (Eterna round: R97, puzzle: Exclusion 3) is in? Low

Place this sequence in its band: GAUUAGGUAGGAUAUACGUAGUGAGCCAGCGAGAGCUGGUAACAUGAGGAUCACCCAUGUAGAAGGACCAUUAA [Xeorqulaus] (Eterna round: R97, puzzle: Exclusion 2) Mid

# bin lookup: classify ACAUGAGGAUCACCCAUGUGACCACGAUGGCUGAUGUAGAGCUAGGAUAUGAGUGAAUAUCUAUCUCAGAAGGAGCUUGACUGG [Deportation 49 - Jieux - Exclusion NG 3] (Eterna round: R96, puzzle: Exclusion NG 3) by its apparent KD of MS2 coat protein Low
